Cited source: PubChem BioAssay

# reported z-score; entries follow
experiment: Plasmodium falciparum growth inhibition, primary screen, strain 3D7, DAPI fluorescence, 100 nL (AID 1184);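 note: parasites grown inside human red blood cells in medium with human serum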; conditions: P. falciparum 3D7 growth, 3 d, higher = more signal
Give the value as a plain number.

The examples below pair each entry with its known result.
INSERT INTO assay_data (molecule, endpoint_value) VALUES
  ('CCc1cc2c(nc1CC)CCN(CCC(C)=NO[C@H](C)c1cn([C@H](CO)Cc3ccccc3)nn1)C2', -1.91),
  ('CC(=O)O[C@H]1C2=CO[C@H](C)[C@H]3[C@H]4C5=C([C@H](O)[C@H]6O[C@H]6C5=O)[C@H](OC4C)[C@@]23C(=O)[C@@H]2O[C@@H]21 (some centres undefined)', -1.24),
  ('CCN1C(=O)[C@H]2[C@H]3[C@H](O)[C@H](O)CC(=O)[C@H]3CC[C@H]2C1=O', 1.05),
  ('C[C@@H]1CC[C@H]2C(=O)O[C@@H](COc3ccc(C(C)(C)C)cc3)CN2[C@@H]1c1ccc(Br)cc1', 0.093),
  ('CC(CCN1CCCCc2nc(C)c(C)cc21)=NOC[C@@H](O)COCc1ccco1', -0.246);

Value of z-score reported for the molecule COc1cccc([C@H]2Oc3ccc(OC)cc3C(=NOC(C)CN3CCCCc4nc(C)c(C)cc43)[C@@H]2O)c1 (some centres undefined) is 0.25

Value of z-score reported for the molecule "COC(=O)CC=C[C@@H](C)[C@@H](C=NOC[C@H]1O[C@H](c2ccccc2)C=C[C@@H]1Oc1ccc(OC)cc1)OC" is 0.201

Value of z-score reported for the molecule "COc1cccc([C@H]2Oc3ccc(OC)cc3C(=NO[C@@H]3O[C@H](COC(C)=O)[C@@H](OC(C)=O)[C@H](OC(C)=O)[C@H]3OC(C)=O)[C@@H]2O)c1" is 0.956
